# reported apparent KD of MS2 coat protein; entries follow
- Test system: MS2 coat protein
- assay-explanation: apparent KD of MS2 coat protein; designed switch direction (-1 OFF switch, 1 ON switch): 1; higher = weaker reporter binding
- experimental-parameters: Eterna round: R95; input ligand: FMN 200 uM
value-kind: apparent KD of MS2 coat protein (nM)

sequence-code	quantity-unit	recorded-value
GGUCCAGCCUGAGCUGGACAAAAGCAUGUACAUGAGGAUCACCCAUGUCAUGUACAAGCUUUUUGCUCGUCAUAAUU [Mat - hsa-mir-208a - 100] (puzzle: Sensor for hsa-mir-208a)	nM	495
GAAAGAGGAAGCGAGGAUAUCGUGUUGAGUACAUGAGGAUCACCCAUGUUGUAGGUAGAGGUAGGCGAGAAGGCGCAGGAGAAGA [JR_SS2_Sub0101] (puzzle: Same State 2)	nM	60
UUUAGUUGCGGGCAGGAUAUGUAUUAAAAUACAUGAGGAUCACCCAUGUGAGGUCAUAAAGACCUGCAGAAGGGCCAAUCGCGAC [Laonerce - 17] (puzzle: Same State 2)	nM	11.5
CGUCCGGCCUGUGCUGGCCGGUCGCUUGUACAUGAGGAUCACCCAUGUUCUUGUGCUGGCUUUUUGCUCGUCUUGUG [salish99_mir208a_020] (puzzle: Sensor for hsa-mir-208a)	nM	27.1
GUAGAUAUAACGCAGGAUAUUCAAUGAGAGACAUGAGGAUCACCCAUGUGAGAGUGAGAUGAUAGGAAGAAGGGUGAGAGAGAUG [Altered State 2-8 - Jieux - Same State 2] (puzzle: Same State 2)	nM	107
